test system: mouse hepatocytes; assay: Hepatocyte intrinsic clearance assay, mouse hepatocytes; type: in vitro ADME; conditions: Mouse Hepatocytes, well stirred liver model, fu=1
// reported EH (%) hepatic extraction ratio for each item listed
Output spec: scalar in %, unitless text.

compound	tgt	units_of_measure	value_observed
COC(=O)c1csc(C(=O)c2c[nH]c3ccc(Cl)cc23)n1 [ARI-055]	mouse hepatocytes	%	23
CNC(=O)c1csc(C(=O)c2c[nH]c3ccc(Cl)cc23)n1 [ARI-049]	mouse hepatocytes	%	30
COC(=O)c1csc(C(=O)c2c[nH]c3ccccc23)n1 [ARI-001, ITE]	mouse hepatocytes	%	87
CCC(=O)c1csc(C(=O)c2c[nH]c3ccc(Cl)cc23)n1 [ARI-067]	mouse hepatocytes	%	16
Nc1nnc(-c2csc(C(=O)c3c[nH]c4ccccc34)n2)o1 [ARI-083]	mouse hepatocytes	%	4

EH (%) hepatic extraction ratio reading for Nc1nnc(-c2csc(C(=O)c3c[nH]c4ccccc34)n2)s1 [ARI-090] : 13

EH (%) hepatic extraction ratio reading for Nc1nnc(-c2csc(C(=O)c3c[nH]c4ccc(F)cc34)n2)o1 [ARI-148] : 18

EH (%) hepatic extraction ratio reading for NCc1nc(-c2csc(C(=O)c3c[nH]c4c(F)cccc34)n2)no1 [ARI-146] : 29

EH (%) hepatic extraction ratio reading for CCC(=O)c1csc(C(=O)c2c[nH]c3cc(F)ccc23)n1 [ARI-143] : 12

EH (%) hepatic extraction ratio reading for Nc1nnc(-c2csc(C(=O)c3c[nH]c4c(F)cccc34)n2)o1 [ARI-118] : 4.6

---

assay: Hepatocyte intrinsic clearance assay, mouse hepatocytes; type: in vitro ADME; details: male, IRC/CD-1, cryopreserved mouse hepatocytes; Mouse Hepatocytes, 1 μM test compound
// reported half-life at 1 μM for each item listed
Output spec: scalar in min, unitless text.

Sample answers from the record:
molecule	reported_endpoint	value_observed
Cc1nnc(-c2csc(C(=O)c3c[nH]c4ccccc34)n2)o1 [ARI-060]	half-life at 1 μM	138
COC(=O)c1csc(C(=O)c2c[nH]c3ccc(F)cc23)n1 [ARI-066]	half-life at 1 μM	13.4

Then this molecule:
half-life at 1 μM reading for Cc1nc(-c2csc(C(=O)c3c[nH]c4ccccc34)n2)no1 [ARI-030] : 17.1

---

test system: EMT-6 syngeneic mouse tumor model (breast cancer); assay: Anti-tumor activity, EMT-6 syngeneic mouse tumor model; format: in vivo; details: Mus musculus, EMT6, ip, 720 h, Study 5, EMT-6, 40 mpk i.p. QD, D30; read-out: TGI (tumor growth inhibition)
// reported inhibition in vivo at 40 mg/kg for each item listed
Output spec: scalar in %, unitless text.

compound	tgt	value_observed
NCc1nnc(-c2csc(C(=O)c3c[nH]c4c(F)cccc34)n2)o1 [ARI-145]	EMT-6 syngeneic mouse tumor model (breast cancer)	10.5

inhibition in vivo at 40 mg/kg reading for NCc1nc(-c2csc(C(=O)c3c[nH]c4c(F)cccc34)n2)no1 [ARI-146] : 23.2

inhibition in vivo at 40 mg/kg reading for CCC(=O)c1csc(C(=O)c2c[nH]c3cc(F)ccc23)n1 [ARI-143] : 65.9

inhibition in vivo at 40 mg/kg reading for CCC(=O)c1csc(C(=O)c2c[nH]c3cc(F)c(F)cc23)n1 [ARI-149] : 42.7

inhibition in vivo at 40 mg/kg reading for CCC(=O)c1csc(C(=O)c2c[nH]c3ccc(F)cc23)n1 [ARI-087] : 42.2

inhibition in vivo at 40 mg/kg reading for Nc1nnc(-c2csc(C(=O)c3c[nH]c4cc(Cl)c(Cl)cc34)n2)o1 [ARI-120] : 27.2

inhibition in vivo at 40 mg/kg reading for Nc1nnc(-c2csc(C(=O)c3c[nH]c4ccc(F)cc34)n2)o1 [ARI-148] : 4.8

---

experiment: In vivo pharmacokinetic study in Sprague-Dawley rats; conditions: Sprague-Dawley, rat, plasma, po, 10 mg/kg, PO (10 mg/kg) vs IV (2 mg/kg), read-out: F % (bioavailability)
// reported bioavailability for each item listed
Output spec: scalar in %, unitless text.

molecule	bioavailability, %
CCC(=O)c1csc(C(=O)c2c[nH]c3cc(F)ccc23)n1 [ARI-143]	19.3

bioavailability reading for Cc1noc(-c2csc(C(=O)c3c[nH]c4ccccc34)n2)n1 [ARI-031] : 6.3

bioavailability reading for COC(=O)c1csc(C(=O)c2c[nH]c3ccccc23)n1 [ARI-001, ITE] : 0.4

bioavailability reading for CCC(=O)c1csc(C(=O)c2c[nH]c3ccc(Cl)cc23)n1 [ARI-067] : 3.5

bioavailability reading for CNC(=O)c1csc(C(=O)c2c[nH]c3ccccc23)n1 [ARI-004] : 33.6

bioavailability reading for CCC(=O)c1csc(C(=O)c2c[nH]c3cc(F)c(F)cc23)n1 [ARI-149] : 6.8

bioavailability reading for Nc1nnc(-c2csc(C(=O)c3c[nH]c4ccccc34)n2)o1 [ARI-083] : 1

bioavailability reading for Nc1nnc(-c2csc(C(=O)c3c[nH]c4c(F)cccc34)n2)o1 [ARI-118] : 0.2

bioavailability reading for CCC(=O)c1csc(C(=O)c2c[nH]c3ccc(F)cc23)n1 [ARI-087] : 19.7

bioavailability reading for Cc1nc(-c2csc(C(=O)c3c[nH]c4ccccc34)n2)no1 [ARI-030] : 0.9

---

// reported EH (%) hepatic extraction ratio for each item listed
test system: mouse hepatocytes; assay: Hepatocyte intrinsic clearance assay, mouse hepatocytes; format: in vitro ADME; details: Mouse Hepatocytes, well stirred liver model, fu=1
Lab note: write values as number then unit, every time.

CNC(=O)c1csc(C(=O)c2c[nH]c3ccc(F)cc23)n1 29%
Cc1nnc(-c2csc(C(=O)c3c[nH]c4ccccc34)n2)o1 23%

EH (%) hepatic extraction ratio reading for `NCc1nnc(-c2csc(C(=O)c3c[nH]c4c(F)cccc34)n2)o1` : 23%

---

experiment: Hepatocyte intrinsic clearance assay, mouse hepatocytes; format: in vitro ADME; conditions: male, IRC/CD-1, cryopreserved mouse hepatocytes; Mouse Hepatocytes, 1 μM test compound
// reported half-life at 1 μM for each item listed
Output spec: scalar in h, unitless text.

CNC(=O)c1csc(C(=O)c2c[nH]c3ccc(Cl)cc23)n1 1.59
Nc1nnc(-c2csc(C(=O)c3c[nH]c4cc(Cl)c(Cl)cc34)n2)o1 13.5
NCc1nnc(-c2csc(C(=O)c3c[nH]c4c(F)cccc34)n2)o1 2.27

half-life at 1 μM reading for `CCC(=O)c1csc(C(=O)c2c[nH]c3cc(F)ccc23)n1` : 5.1

half-life at 1 μM reading for `CCC(=O)c1csc(C(=O)c2c[nH]c3ccc(F)cc23)n1` : 1.84

half-life at 1 μM reading for `CNC(=O)c1csc(C(=O)c2c[nH]c3ccc(F)cc23)n1` : 1.62

half-life at 1 μM reading for `COC(=O)c1csc(C(=O)c2c[nH]c3ccccc23)n1` : 0.0917

half-life at 1 μM reading for `CCC(=O)c1csc(C(=O)c2c[nH]c3cc(F)c(F)cc23)n1` : 3.97

half-life at 1 μM reading for `Cc1noc(-c2csc(C(=O)c3c[nH]c4ccccc34)n2)n1` : 11.7

half-life at 1 μM reading for `CCC(=O)c1csc(C(=O)c2c[nH]c3ccc(Cl)cc23)n1` : 3.54

---

tested on: human hepatocytes; experiment: Hepatocyte intrinsic clearance assay, human hepatocytes; assay type: in vitro ADME; conditions: Human Hepatocytes, 1 μM test compound
// reported CLint (μL/min/10^6 ells) for each item listed
Output spec: scalar in μL/min/10^6 ells, unitless text.

CCC(=O)c1csc(C(=O)c2c[nH]c3cc(F)ccc23)n1 4.5
CCC(=O)c1csc(C(=O)c2c[nH]c3ccc(Cl)cc23)n1 2.3

CLint (μL/min/10^6 ells) reading for `COC(=O)c1csc(C(=O)c2c[nH]c3ccc(Cl)cc23)n1` : 10.3

CLint (μL/min/10^6 ells) reading for `NCc1nnc(-c2csc(C(=O)c3c[nH]c4c(F)cccc34)n2)o1` : 4.1

CLint (μL/min/10^6 ells) reading for `CNC(=O)c1csc(C(=O)c2c[nH]c3ccccc23)n1` : 40.2

CLint (μL/min/10^6 ells) reading for `CNC(=O)c1csc(C(=O)c2c[nH]c3ccc(F)cc23)n1` : 7.6

CLint (μL/min/10^6 ells) reading for `Nc1nnc(-c2csc(C(=O)c3c[nH]c4c(F)cccc34)n2)o1` : 0.7

CLint (μL/min/10^6 ells) reading for `CCC(=O)c1csc(C(=O)c2c[nH]c3c(F)cccc23)n1` : 3.5

---

experiment: Hepatocyte intrinsic clearance assay, human hepatocytes; format: in vitro ADME; settings: male, cryopreserved pooled human hepatocytes; Human Hepatocytes, 1 μM test compound
For each record, check the reported half-life at 1 μM: if it is below 1 h write rule met, else write rule not met.

Solved cases below.
CCC(=O)c1csc(C(=O)c2c[nH]c3cccc(F)c23)n1 rule not met
COC(=O)c1csc(C(=O)c2c[nH]c3ccccc23)n1 rule met
CCC(=O)c1csc(C(=O)c2c[nH]c3c(F)cccc23)n1 rule not met
COC(=O)c1csc(C(=O)c2c[nH]c3ccc(Cl)cc23)n1 rule not met

Then there is this molecule:
Q: Threshold test, half-life at 1 μM < 1 h: `CNC(=O)c1csc(C(=O)c2c[nH]c3ccccc23)n1`
Ans: rule met
